Provide the reported Population Normal (%) of each item.
- Tested on: Fibroblast
- assay-info: Multiplex assay against human fibroblast
- Type: toxicity, cell-based
- condition-notes: 48 h, 1 µM, compound concentration 1 uM, replicate 1
Give just the numeric value; % need not be written.

[ask] Find the measured Population Normal (%) of `Cl.O=C(O)c1cc(-c2ccc(C3CCNCC3)cc2)c2ccc(-c3ccc(C(F)(F)F)cc3)cc2c1` and report it.
[reply] 79

[ask] Provide one value: measured Population Normal (%) of `CNC(=O)Nc1ccc(-c2nc(N3CC4CCC(C3)O4)c3cnn(C4CCC5(CC4)OCCO5)c3n2)cc1`
[reply] 80

[ask] Give recorded Population Normal (%). `CCc1ccc(OCc2ccccc2C(=O)Nc2ccc3nc(C)cc(N)c3c2)cc1.Cl`
[reply] 79

[ask] Respond only with Population Normal (%) recorded for Cc1cccc(CN2CCN(C(c3ccccc3)c3ccc(Cl)cc3)CC2)c1.Cl.Cl (stereo unspecified)
[reply] 81

[ask] Output Population Normal (%) of CCc1nn(CCCN2CCN(c3cccc(Cl)c3)CC2)c(=O)n1CCOc1ccccc1.Cl [NEFAZODONE HYDROCHLORIDE]
[reply] 80

[ask] Supply Population Normal (%) value. Item: COc1cc2ncn(-c3cc(OCc4ccccc4C(F)(F)F)c(C(N)=O)s3)c2cc1OC [GW843682X]
[reply] 81

Cited source for all entries: ChEMBL document CHEMBL4689842
